cond: in methyl acetate, 313.15 K
propertyLabel: solubility (mole fraction)
Give the value as a plain number.

input: What does the data say about its solubility (mole fraction)? Entry: "Nc1nc(NC2CC2)c2ncn([C@H]3C=C[C@@H](CO)C3)c2n1"
output: 0.00206

----------
cond: in n-pentanol, 283.15 K
propertyLabel: solubility (mole fraction)

input: Data request, read-out solubility (mole fraction), for "Nc1nc(NC2CC2)c2ncn([C@H]3C=C[C@@H](CO)C3)c2n1"
output: 0.0106

----------
cond: in n-pentanol, 293.15 K
propertyLabel: solubility (mole fraction)
Give the figure by itself; no unit, no explanation.

input: Which solubility (mole fraction) is reported for this molecule? "Nc1nc(NC2CC2)c2ncn([C@H]3C=C[C@@H](CO)C3)c2n1"
output: 0.0134

----------
cond: in n-pentanol, 318.15 K
propertyLabel: solubility (mole fraction)
Field format: numeric only.

input: Quick one: solubility (mole fraction) for "Nc1nc(NC2CC2)c2ncn([C@H]3C=C[C@@H](CO)C3)c2n1" ?
output: 0.0248

----------
cond: in isobutanol, 293.15 K
propertyLabel: solubility (mole fraction)

input: Reported solubility (mole fraction), compound "Nc1nc(NC2CC2)c2ncn([C@H]3C=C[C@@H](CO)C3)c2n1" : ____
output: 0.0101

The values you see were collected from BigSolDB 2.1.
